Values from ChEMBL document CHEMBL3885861

Catalogue of compounds with associated RALB
Species on record: Rattus norvegicus
Assay procedure: Open TG-GATES - Regimen: Single
Assay type: toxicity, organism-based, Sprague-Dawley
Design: regimen Single, gender Male, age 6 weeks
Measurement setup: in vivo, po, 0 mg/kg, 9 h, tissue Plasma, route gavage, dose level Control
Property: RALB (g/dL)

1. NC(N)=Nc1nc(CSCCC(N)=NS(N)(=O)=O)cs1 [FAMOTIDINE] : 3.2
2. CC/C(=C(\c1ccccc1)c1ccc(OCCN(C)C)cc1)c1ccccc1 [TAMOXIFEN] : 2.5
3. Cc1ccc(C)c(OCCCC(C)(C)C(=O)O)c1 [GEMFIBROZIL] : 2.6
4. CN(C)CCCN1c2ccccc2CCc2ccc(Cl)cc21 [CLOMIPRAMINE] : 2.4
5. CN1C(=O)CN=C(c2ccccc2)c2cc(Cl)ccc21 [DIAZEPAM] : 3.7
6. C[C@@H]1C[C@H]2[C@@H]3CCC4=CC(=O)C=C[C@]4(C)[C@@]3(F)[C@@H](O)C[C@]2(C)[C@@]1(O)C(=O)CO [DEXAMETHASONE] : 3.8
7. CCOC(=O)CCC(=O)O[C@H]1[C@H](O[C@@H]2[C@@H](C)[C@H](O[C@H]3C[C@@](C)(OC)[C@@H](O)[C@H](C)O3)[C@@H](C)C(=O)O[C@H](CC)[C@@](C)(O)[C@H](O)[C@@H](C)C(=O)[C@H](C)C[C@@]2(C)O)O[C@H](C)C[C@@H]1N(C)C [ERYTHROMYCIN ETHYLSUCCINATE] : 2.9
8. CC(C)OC(=O)C(C)(C)Oc1ccc(C(=O)c2ccc(Cl)cc2)cc1 [FENOFIBRATE] : 2.4
9. O=C(CCCN1CCC(O)(c2ccc(Cl)cc2)CC1)c1ccc(F)cc1 [HALOPERIDOL] : 3.8
10. CCCNC(=O)NS(=O)(=O)c1ccc(Cl)cc1 [CHLORPROPAMIDE] : 2.5
11. CN(C)CCCN1c2ccccc2CCc2ccccc21 [IMIPRAMINE] : 2.5
12. COc1ccc2[nH]c([S+]([O-])Cc3ncc(C)c(OC)c3C)nc2c1 (stereo not drawn) [OMEPRAZOLE] : 3.3
13. CC1=C(/C=C/C(C)=C/C=C/C(C)=C/CO)C(C)(C)CCC1 [RETINOL] : 2.9
14. NNC(=O)c1ccncc1 [ISONIAZID] : 3.4
15. COC1=CC(=O)C[C@@H](C)[C@]12Oc1c(Cl)c(OC)cc(OC)c1C2=O [GRISEOFULVIN] : 3.5
16. COc1cc2c(c(OC)c1OC)-c1ccc(OC)c(=O)cc1[C@@H](NC(C)=O)CC2 [COLCHICINE] : 3.8
17. CCOc1ccc(NC(=O)CC(C)O)cc1 (stereo not drawn) [BUCETIN] : 2.6
18. CN(C)CCN(Cc1cccs1)c1ccccn1 : 2.9

----------
Catalogue of compounds with associated Ret
Organism: Rattus norvegicus
Assay procedure: Open TG-GATES - Regimen: Single
Type: toxicity, organism-based, Sprague-Dawley
Set-up: regimen Single, gender Male, age 6 weeks
Measurement setup: in vivo, po, 0 mg/kg, 6 h, tissue Blood, route gavage, dose level Control
Property: Ret (%)

1. CCOC(=O)CCC(=O)O[C@H]1[C@H](O[C@@H]2[C@@H](C)[C@H](O[C@H]3C[C@@](C)(OC)[C@@H](O)[C@H](C)O3)[C@@H](C)C(=O)O[C@H](CC)[C@@](C)(O)[C@H](O)[C@@H](C)C(=O)[C@H](C)C[C@@]2(C)O)O[C@H](C)C[C@@H]1N(C)C [ERYTHROMYCIN ETHYLSUCCINATE] : 7.6
2. CN1C(=O)CN=C(c2ccccc2)c2cc(Cl)ccc21 [DIAZEPAM] : 8.5
3. CN(C)CCN(Cc1cccs1)c1ccccn1 : 7.8
4. Cc1ccc(C)c(OCCCC(C)(C)C(=O)O)c1 [GEMFIBROZIL] : 7.3
5. CN(C)CCCN1c2ccccc2CCc2ccc(Cl)cc21 [CLOMIPRAMINE] : 8.3
6. CN(C)CCCN1c2ccccc2CCc2ccccc21 [IMIPRAMINE] : 7.6
7. CC1=C(/C=C/C(C)=C/C=C/C(C)=C/CO)C(C)(C)CCC1 [RETINOL] : 8.5
8. CC(C)OC(=O)C(C)(C)Oc1ccc(C(=O)c2ccc(Cl)cc2)cc1 [FENOFIBRATE] : 9.6

----------
Catalogue of compounds with associated WBC
Species: Rattus norvegicus
Assay procedure: Open TG-GATES - Regimen: Daily Repeat
Format: toxicity, organism-based, Sprague-Dawley
Design: regimen Daily Repeat, gender Male, age 6 weeks
Measurement setup: in vivo, po, 100 mg/kg, […], tissue Blood, route gavage, dose level Low, time 14 day
Property: WBC (x10_2/uL)

1. CCOc1ccc(NC(=O)CC(C)O)cc1 (stereo not given) [BUCETIN] : 86.9
2. CCOC(=O)CCC(=O)O[C@H]1[C@H](O[C@@H]2[C@@H](C)[C@H](O[C@H]3C[C@@](C)(OC)[C@@H](O)[C@H](C)O3)[C@@H](C)C(=O)O[C@H](CC)[C@@](C)(O)[C@H](O)[C@@H](C)C(=O)[C@H](C)C[C@@]2(C)O)O[C@H](C)C[C@@H]1N(C)C [ERYTHROMYCIN ETHYLSUCCINATE] : 110.5
3. COC1=CC(=O)C[C@@H](C)[C@]12Oc1c(Cl)c(OC)cc(OC)c1C2=O [GRISEOFULVIN] : 131.1
4. NC(N)=Nc1nc(CSCCC(N)=NS(N)(=O)=O)cs1 [FAMOTIDINE] : 94.5
5. COc1ccc2[nH]c([S+]([O-])Cc3ncc(C)c(OC)c3C)nc2c1 (stereo not given) [OMEPRAZOLE] : 101.4

----------
Catalogue of molecules with associated KIDNEY_R
Organism: Rattus norvegicus
Assay procedure: Open TG-GATES - Regimen: Daily Repeat
Assay type: toxicity, organism-based, Sprague-Dawley
Parameters: regimen Daily Repeat, gender Male, age 6 weeks
Measurement setup: in vivo, po, 0 mg/kg, 72 h, tissue Kidney, route gavage, dose level Control, time 3 day
Property: KIDNEY_R (g)

1) CCOC(=O)CCC(=O)O[C@H]1[C@H](O[C@@H]2[C@@H](C)[C@H](O[C@H]3C[C@@](C)(OC)[C@@H](O)[C@H](C)O3)[C@@H](C)C(=O)O[C@H](CC)[C@@](C)(O)[C@H](O)[C@@H](C)C(=O)[C@H](C)C[C@@]2(C)O)O[C@H](C)C[C@@H]1N(C)C [ERYTHROMYCIN ETHYLSUCCINATE] : 1.1
2) COC1=CC(=O)C[C@@H](C)[C@]12Oc1c(Cl)c(OC)cc(OC)c1C2=O [GRISEOFULVIN] : 0.9
3) CC1=C(/C=C/C(C)=C/C=C/C(C)=C/CO)C(C)(C)CCC1 [RETINOL] : 1.1
4) CN(C)CCN(Cc1cccs1)c1ccccn1 : 1
5) CCCNC(=O)NS(=O)(=O)c1ccc(Cl)cc1 [CHLORPROPAMIDE] : 0.9
6) CC(C)OC(=O)C(C)(C)Oc1ccc(C(=O)c2ccc(Cl)cc2)cc1 [FENOFIBRATE] : 0.9
7) CCOc1ccc(NC(=O)CC(C)O)cc1 (stereo not drawn) [BUCETIN] : 1.1
8) O=C(CCCN1CCC(O)(c2ccc(Cl)cc2)CC1)c1ccc(F)cc1 [HALOPERIDOL] : 1
9) NC(N)=Nc1nc(CSCCC(N)=NS(N)(=O)=O)cs1 [FAMOTIDINE] : 1
10) COc1ccc2[nH]c([S+]([O-])Cc3ncc(C)c(OC)c3C)nc2c1 (stereo not drawn) [OMEPRAZOLE] : 1.1
11) CN(C)CCCN1c2ccccc2CCc2ccccc21 [IMIPRAMINE] : 1
12) NNC(=O)c1ccncc1 [ISONIAZID] : 1
13) CN1C(=O)CN=C(c2ccccc2)c2cc(Cl)ccc21 [DIAZEPAM] : 1.1

----------
Catalogue of compounds with associated Eos
Species on record: Rattus norvegicus
Assay procedure: Open TG-GATES - Regimen: Single
Assay type: toxicity, organism-based, Sprague-Dawley
Design: regimen Single, gender Male, age 6 weeks
Measurement setup: in vivo, po, 10 mg/kg, 6 h, tissue Blood, route gavage, dose level Low
Property: Eos (%)

1) CN(C)CCCN1c2ccccc2CCc2ccccc21 : 0.8
2) CC1=C(/C=C/C(C)=C/C=C/C(C)=C/CO)C(C)(C)CCC1 : 1
3) CN(C)CCCN1c2ccccc2CCc2ccc(Cl)cc21 : 0.4
4) CC(C)OC(=O)C(C)(C)Oc1ccc(C(=O)c2ccc(Cl)cc2)cc1 [FENOFIBRATE] : 0.8
5) CN(C)CCN(Cc1cccs1)c1ccccn1 : 0.6

----------
Catalogue of compounds with associated Ht
Organism: Rattus norvegicus
Assay procedure: Open TG-GATES - Regimen: Single
Type: toxicity, organism-based, Sprague-Dawley
Design: regimen Single, gender Male, age 6 weeks
Measurement setup: in vivo, po, 300 mg/kg, 9 h, tissue Blood, route gavage, dose level Middle
Property: Ht

1. CCOC(=O)CCC(=O)O[C@H]1[C@H](O[C@@H]2[C@@H](C)[C@H](O[C@H]3C[C@@](C)(OC)[C@@H](O)[C@H](C)O3)[C@@H](C)C(=O)O[C@H](CC)[C@@](C)(O)[C@H](O)[C@@H](C)C(=O)[C@H](C)C[C@@]2(C)O)O[C@H](C)C[C@@H]1N(C)C [ERYTHROMYCIN ETHYLSUCCINATE] : 40.5%
2. COC1=CC(=O)C[C@@H](C)[C@]12Oc1c(Cl)c(OC)cc(OC)c1C2=O : 38.2%
3. COc1ccc2[nH]c([S+]([O-])Cc3ncc(C)c(OC)c3C)nc2c1 (centres undefined) : 37%
4. NC(N)=Nc1nc(CSCCC(N)=NS(N)(=O)=O)cs1 : 37.4%
